The origin of these recorded values is ChEMBL document CHEMBL1142895.

Below is a list of entries, each paired with its recorded inhibition at 100 µg/mL value.
Test system: Brassica rapa subsp. oleifera
MEASUREMENT_PROTOCOL: Inhibition of root growth of Brassica campestris at 100 mg/L
Type: functional

# QUERY_SMILES, U, inhibition at 100 µg/mL
records = [
    ("Cc1cccc(Cn2nnn(-c3ccc(Cl)cc3)c2=O)c1", "%", 80),
    ("CCCCSc1nnc(Cn2nnn(-c3ccc(Cl)cc3)c2=O)s1", "%", 50),
    ("C=CCSc1nnc(Cn2nnn(-c3ccc(Cl)cc3)c2=O)o1", "%", 80),
    ("Cc1ccc(Cn2nnn(-c3ccc(Cl)cc3)c2=O)cc1", "%", 0),
    ("C=CCSc1nnc(Cn2nnn(-c3ccc(Cl)cc3)c2=O)s1", "%", 60),
    ("CCOC(=O)Cn1nnn(-c2ccc(Cl)cc2)c1=O", "%", 85),
    ("CCCCCCCCSc1nnc(Cn2nnn(-c3ccc(Cl)cc3)c2=O)s1", "%", 40),
    ("O=c1n(Cc2nnc(SCc3cccc(F)c3)s2)nnn1-c1ccc(Cl)cc1", "%", 40),
    ("O=c1c(Cn2nnn(-c3ccccc3Cl)c2=O)coc2ccccc12", "%", 50),
    ("O=c1n(Cc2cccc(Cl)c2)nnn1-c1ccc(Cl)cc1", "%", 0),
    ("CCSc1nnc(Cn2nnn(-c3ccc(Cl)cc3)c2=O)s1", "%", 60),
]

---

Test system: Cucumis sativus
MEASUREMENT_PROTOCOL: Herbicidal activity against Cucumis sativus at 450 g ai/ha in greenhouse in vivo test
Type: functional, organism-based
Calls of active or inactive are those of the source. No cut-off for these calls is given here.

# COMPOUND, Activity
data = [
    ("CCOC(=O)Cn1nnn(-c2ccc(Cl)cc2)c1=O", "inactive"),
    ("O=c1c(Cn2nnn(-c3ccc(Cl)cc3)c2=O)coc2ccccc12", "inactive"),
    ("CCOC(=O)C(C)n1nnn(-c2ccc(Cl)cc2)c1=O (stereo not drawn)", "inactive"),
    ("CCCCCCCCSc1nnc(Cn2nnn(-c3ccc(Cl)cc3)c2=O)s1", "inactive"),
    ("O=c1n(Cc2nnc(SCc3ccccc3)s2)nnn1-c1ccc(Cl)cc1", "inactive"),
    ("CCOC(=O)C(C)Sc1nnc(Cn2nnn(-c3ccc(Cl)cc3)c2=O)s1 (stereo not drawn)", "inactive"),
    ("O=c1n(Cc2ccc(Br)cc2)nnn1-c1ccc(Cl)cc1", "inactive"),
    ("CCOC(=O)CSc1nnc(Cn2nnn(-c3ccc(Cl)cc3)c2=O)o1", "inactive"),
    ("COc1cccc(Cn2nnn(-c3ccc(Cl)cc3)c2=O)c1", "inactive"),
    ("O=c1n(Cc2nnc(SCc3ccccc3F)s2)nnn1-c1ccc(Cl)cc1", "inactive"),
    ("CCCCSc1nnc(Cn2nnn(-c3ccc(Cl)cc3)c2=O)s1", "inactive"),
    ("O=c1n(Cc2nnc(SCc3cccc(F)c3)s2)nnn1-c1ccc(Cl)cc1", "inactive"),
    ("CO/C=C\\C(C(=O)OC)c1ccccc1CSc1nnc(Cn2nnn(-c3ccc(Cl)cc3)c2=O)s1 (stereo not drawn)", "inactive"),
    ("CCCSc1nnc(Cn2nnn(-c3ccc(Cl)cc3)c2=O)s1", "inactive"),
    ("O=c1n(Cc2ccccc2F)nnn1-c1ccc(Cl)cc1", "inactive"),
    ("CSc1nnc(Cn2nnn(-c3ccc(Cl)cc3)c2=O)s1", "inactive"),
    ("COc1cc(-n2nnn(C)c2=O)c(Cl)cc1Cl", "inactive"),
    ("CCSc1nnc(Cn2nnn(-c3ccc(Cl)cc3)c2=O)s1", "inactive"),
    ("Cc1ccccc1CSc1nnc(Cn2nnn(-c3ccc(Cl)cc3)c2=O)s1", "inactive"),
    ("CCCCCCSc1nnc(Cn2nnn(-c3ccc(Cl)cc3)c2=O)s1", "inactive"),
    ("CCOC(=O)C(C)Sc1nnc(Cn2nnn(-c3ccc(Cl)cc3)c2=O)o1 (stereo not drawn)", "inactive"),
    ("O=c1c(Cn2nnn(-c3ccccc3Cl)c2=O)coc2ccccc12", "inactive"),
    ("O=c1n(Cc2cccc(Cl)c2)nnn1-c1ccc(Cl)cc1", "inactive"),
]
